Where do the numbers come from? From paper PMC12057357.

- PROTOCOL_DESCRIPTION: Population pharmacokinetic model of PMB in plasma and ELF of patients with MDR-GNB pneumonia
- Type: in vivo, human
- MEASUREMENT_CONDITIONS: human, plasma; final PopPK model estimate, NONMEM, 76 patients, steady state; read-out: CL1, central compartment clearance of plasma (converted)
- Procedure: This was a single-center, prospective study conducted between January 2022 and October 2024 at Fujian Medical University Union Hospital. […] Patients with severe bronchoconstriction, refractory hypoxemia, pregnancy, or those undergoing continuous renal replacement therapy were excluded. […] ELF is obtained through BAL. […] Subsequent recovered aspirates are combined, and their volume is measured and recorded. […] The concentration of PMB in ELF can be determined using urea as an endogenous biomarker ([4], [8]). […]
Bridge positions count the residues as written; N and C are the ends. Square brackets hold non-standard residues; d marks the D form. Peptide text beside a SMILES is read from it. * marks the point of attachment. X1 = CC[C@H](C)CCCCC(=O)*; Dab = NCC[C@H](N)C(=O)O
READOUT_NAME: clearance (mL/min)

>>> value_reported("CC[C@H](C)CCCCC(=O)N[C@@H](CCN)C(=O)N[C@H](C(=O)N[C@@H](CCN)C(=O)N[C@H]1CCNC(=O)[C@H]([C@@H](C)O)NC(=O)[C@H](CCN)NC(=O)[C@H](CCN)NC(=O)[C@H](CC(C)C)NC(=O)[C@@H](Cc2ccccc2)NC(=O)[C@H](CCN)NC1=O)[C@@H](C)O [PMB, Polymyxin B] (X1-[Dab]T[Dab][Dab][Dab][dF]L[Dab][Dab]T; lactam 4-C)")
23.2
